measured-on: ALK tyrosine kinase receptor (Homo sapiens, UniProt Q9UM73, F1174L)
Sequence (Q9UM73 19-1620 F1174L limits assumed): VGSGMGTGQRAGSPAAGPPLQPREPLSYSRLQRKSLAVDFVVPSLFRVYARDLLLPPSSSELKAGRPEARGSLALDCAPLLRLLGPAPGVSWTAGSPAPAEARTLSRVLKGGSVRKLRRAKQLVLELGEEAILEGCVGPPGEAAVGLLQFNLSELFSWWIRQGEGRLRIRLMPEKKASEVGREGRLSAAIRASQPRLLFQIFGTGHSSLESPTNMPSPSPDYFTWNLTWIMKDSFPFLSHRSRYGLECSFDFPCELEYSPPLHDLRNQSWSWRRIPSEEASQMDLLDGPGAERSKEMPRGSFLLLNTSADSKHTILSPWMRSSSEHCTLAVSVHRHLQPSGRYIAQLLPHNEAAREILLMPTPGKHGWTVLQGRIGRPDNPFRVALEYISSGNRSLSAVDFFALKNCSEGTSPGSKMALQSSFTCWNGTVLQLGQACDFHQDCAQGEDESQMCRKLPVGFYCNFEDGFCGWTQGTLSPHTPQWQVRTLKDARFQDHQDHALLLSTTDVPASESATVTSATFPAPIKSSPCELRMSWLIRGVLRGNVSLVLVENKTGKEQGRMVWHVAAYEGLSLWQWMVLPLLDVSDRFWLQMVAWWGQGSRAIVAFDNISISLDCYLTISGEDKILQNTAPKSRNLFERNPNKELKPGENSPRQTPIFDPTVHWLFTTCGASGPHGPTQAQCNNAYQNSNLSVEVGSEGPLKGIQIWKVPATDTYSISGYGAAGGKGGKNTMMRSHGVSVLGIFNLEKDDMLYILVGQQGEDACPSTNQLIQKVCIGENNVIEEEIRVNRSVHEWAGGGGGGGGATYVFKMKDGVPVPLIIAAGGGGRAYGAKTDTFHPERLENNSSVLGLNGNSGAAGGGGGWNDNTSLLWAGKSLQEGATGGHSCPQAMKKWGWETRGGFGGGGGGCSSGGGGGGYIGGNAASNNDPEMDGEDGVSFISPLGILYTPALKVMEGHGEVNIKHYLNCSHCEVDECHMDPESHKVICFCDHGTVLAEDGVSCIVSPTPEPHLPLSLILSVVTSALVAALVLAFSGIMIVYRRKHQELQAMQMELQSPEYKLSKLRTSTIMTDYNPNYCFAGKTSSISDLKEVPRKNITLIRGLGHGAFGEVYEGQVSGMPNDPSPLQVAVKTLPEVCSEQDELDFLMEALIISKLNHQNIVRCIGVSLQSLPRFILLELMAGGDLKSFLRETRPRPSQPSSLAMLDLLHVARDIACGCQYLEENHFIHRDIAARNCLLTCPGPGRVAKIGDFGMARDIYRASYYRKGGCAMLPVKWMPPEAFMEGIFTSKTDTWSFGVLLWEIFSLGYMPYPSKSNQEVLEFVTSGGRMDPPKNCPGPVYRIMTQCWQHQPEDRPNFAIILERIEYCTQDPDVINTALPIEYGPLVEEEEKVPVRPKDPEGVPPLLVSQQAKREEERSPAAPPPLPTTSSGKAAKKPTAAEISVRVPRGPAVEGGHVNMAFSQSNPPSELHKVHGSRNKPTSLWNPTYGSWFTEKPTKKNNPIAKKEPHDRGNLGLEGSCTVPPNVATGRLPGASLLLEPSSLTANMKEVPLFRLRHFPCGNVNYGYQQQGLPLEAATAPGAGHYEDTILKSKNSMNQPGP
method-description: Displacement of kinase tracer 236 from human N-terminal GST-tagged ALK F1174L mutant (1058 to 1620 residues) after 60 mins by LanthaScreen Eu--kinase binding assay
observable: IC50 (nM)

CCOc1cc(C(=O)NC2CCN(C)CC2)ccc1Nc1ncc2c(n1)N(C1CCCC1)[C@@H](CC)C(=O)N2C :: 3400

P = CCOc1cc(C2CCN(C)CC2)ccc1Nc1ncc2c(n1)N(Cc1cccc(Br)c1)[C@H](CC)C(=O)N2C
Q = CC[C@@H]1C(=O)N(C)c2cnc(Nc3ccc(C(=O)NC4CCN(C)CC4)cc3OCC(C)C)nc2N1C1CCCC1
[Q] Select one. Lower IC50: P or Q In your reply, give the label of the chosen option.
[A] P

====

measured-on: ALK tyrosine kinase receptor (Homo sapiens, UniProt Q9UM73)
method-description: Inhibition of full-length C-terminal NanoLuc-tagged ALK (unknown origin) expressed in human HEK293 cells after 2 hrs by NanoBRET target engagement assay
pIC50: −log10 of the molar value.
observable: pIC50

1 = CCOc1cc(C2CCN(C)CC2)ccc1Nc1ncc2c(n1)N(Cc1ccccc1)[C@H](CC)C(=O)N2C
2 = CCOc1cc(C2CCN(C)CC2)ccc1Nc1ncc2c(n1)N(Cc1sccc1C)[C@H](CC)C(=O)N2C
3 = CCOc1cc(C2CCN(C)CC2)ccc1Nc1ncc2c(n1)N(Cc1cc(C)cs1)[C@H](CC)C(=O)N2C
[Q] Which order do the items above take when sorted by pIC50 from high to low? Response format: the labels, sorted as the prompt asks.
[A] 3, 2, 1

====

measured-on: ALK tyrosine kinase receptor (Homo sapiens, UniProt Q9UM73, F1174L)
method-description: Inhibition of ALK F1174L mutant auto-phosphorylation in human Kelly cells after 3 hrs by MSD assay
Assay type: cell-based
observable: IC50 (nM)
Quick reminder: number only, in nM, skip the unit.

[Q] Need IC50 of CCOc1cc(C2CCN(C)CC2)ccc1Nc1ncc2c(n1)N(Cc1cc(C)cs1)[C@H](CC)C(=O)N2C , thanks.
[A] 1500

====

measured-on: Bromodomain-containing protein 4 (Homo sapiens)
method-description: Binding affinity to BRD4 (unknown origin) by isothermal calorimetry
pKd: −log10 of the molar value.
observable: pKd

See these solved cases before continuing.
CCOc1cc(C2CCN(C)CC2)ccc1Nc1ncc2c(n1)N(Cc1sccc1C)[C@H](CC)C(=O)N2C :: 7.20
CCOc1cc(C(=O)NC2CCN(C)CC2)ccc1Nc1ncc2c(n1)N(Cc1ccccc1)[C@H](CC)C(=O)N2C :: 7.16
CCOc1cc(C(=O)NC2CCN(C)CC2)ccc1Nc1ncc2c(n1)N(Cc1cccc(Br)c1)[C@H](CC)C(=O)N2C :: 7.14
CCOc1cc(C(=O)NC2CCN(C)CC2)ccc1Nc1ncc2c(n1)N(C1CCCC1)[C@H](CC)C(=O)N2C :: 7.09
CC[C@@H]1C(=O)N(C)c2cnc(Nc3ccc(C(=O)NC4CCN(C)CC4)cc3OCC(C)C)nc2N1C1CCCC1 :: 7.14
CCOc1cc(C2CCN(C)CC2)ccc1Nc1ncc2c(n1)N(Cc1ccccc1)[C@H](CC)C(=O)N2C :: 7.27
CCOc1cc(C2CCN(C)CC2)ccc1Nc1ncc2c(n1)N(Cc1cccc(Cl)c1)[C@H](CC)C(=O)N2C :: 6.89
CCOc1cc(C2CCN(C)CC2)ccc1Nc1ncc2c(n1)N(Cc1cccc(C#N)c1)[C@H](CC)C(=O)N2C :: 7.11
CC[C@@H]1C(=O)N(C)c2cnc(Nc3ccc(C4CCN(C)CC4)cc3OC)nc2N1C1CCCC1 :: 7.10

a = CCOc1cc(C2CCN(C)CC2)ccc1Nc1ncc2c(n1)N(Cc1cc(C)cs1)[C@H](CC)C(=O)N2C
b = CCOc1cc(C2CCN(C)CC2)ccc1Nc1ncc2c(n1)N(Cc1cccc(Br)c1)[C@H](CC)C(=O)N2C
[Q] Which shows the larger pKd value: a or b ? Label of pick, please.
[A] a

====

measured-on: Bromodomain-containing protein 4 (Homo sapiens, UniProt O60885)
observable: deltaTm (K)

Use the examples below as a reference point.
CCOc1cc(C2CCN(C)CC2)ccc1Nc1ncc2c(n1)N(Cc1ccc(C)s1)[C@H](CC)C(=O)N2C :: 8.3
CCOc1cc(C(=O)NC2CCN(C)CC2)ccc1Nc1ncc2c(n1)N(Cc1ccccc1)[C@H](CC)C(=O)N2C :: 4.1
CC[C@@H]1C(=O)N(C)c2cnc(Nc3ccc(C(=O)NC4CCN(C)CC4)cc3OCC(C)C)nc2N1C1CCCC1 :: 7.2

P = CCOc1cc(C2CCN(C)CC2)ccc1Nc1ncc2c(n1)N(Cc1cccc(C#N)c1)[C@H](CC)C(=O)N2C
Q = CCOc1cc(C(=O)NC2CCN(C)CC2)ccc1Nc1ncc2c(n1)N(C1CCCC1)CC(=O)N2C
R = CCOc1cc(C2CCN(C)CC2)ccc1Nc1ncc2c(n1)N(Cc1cc(C)cs1)[C@H](CC)C(=O)N2C
[Q] Give the ascending ranking of the items by reported deltaTm. Would you mind listing the labels in the order requested?
[A] Q, P, R

I = CCOc1cc(C2CCN(C)CC2)ccc1Nc1ncc2c(n1)N(Cc1cccc(Br)c1)[C@H](CC)C(=O)N2C
II = CCOc1cc(C2CCN(C)CC2)ccc1Nc1ncc2c(n1)N(Cc1ccccc1Br)[C@H](CC)C(=O)N2C
[Q] Which entry shows the lesser value of deltaTm here, I or II ? # reply format: chosen label
[A] II
(II: 2.9 K, I: 5 K)

====

method-description: Permeability of the compound at pH 7.4 by PAMPA
Type: ADME
measurement-conditions: read-out: permeability
observable: Papp (×10⁻⁶ cm/s)
Give the quantity in ×10⁻⁶ cm/s, number only.

[Q] What does the data say about its Papp? Entry: CCOc1cc(C2CCN(C)CC2)ccc1Nc1ncc2c(n1)N(Cc1cc(C)cs1)[C@H](CC)C(=O)N2C
[A] 49

====

measured-on: Serine/threonine-protein kinase PLK1 (Homo sapiens, UniProt P53350)
Sequence (P53350 whole entry): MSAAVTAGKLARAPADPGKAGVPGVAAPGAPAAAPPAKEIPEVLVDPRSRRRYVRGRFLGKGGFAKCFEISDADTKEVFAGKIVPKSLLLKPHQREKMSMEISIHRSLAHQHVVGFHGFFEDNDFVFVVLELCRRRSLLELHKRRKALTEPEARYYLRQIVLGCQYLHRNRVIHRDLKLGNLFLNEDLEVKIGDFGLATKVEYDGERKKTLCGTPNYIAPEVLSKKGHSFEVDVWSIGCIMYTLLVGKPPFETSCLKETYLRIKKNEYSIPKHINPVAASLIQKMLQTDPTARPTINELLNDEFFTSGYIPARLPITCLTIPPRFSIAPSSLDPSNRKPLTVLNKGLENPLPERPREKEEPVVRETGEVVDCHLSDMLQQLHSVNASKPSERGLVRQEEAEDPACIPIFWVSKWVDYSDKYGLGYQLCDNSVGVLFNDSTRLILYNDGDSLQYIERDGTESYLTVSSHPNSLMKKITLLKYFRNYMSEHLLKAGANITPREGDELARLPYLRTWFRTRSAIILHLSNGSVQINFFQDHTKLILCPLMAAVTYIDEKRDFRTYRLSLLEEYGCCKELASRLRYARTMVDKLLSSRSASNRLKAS
observable: Kd (nM)
Number in nM, nothing else.

[Q] Can you share its Kd? I mean this compound: CCOc1cc(C2CCN(C)CC2)ccc1Nc1ncc2c(n1)N(Cc1cc(C)cs1)[C@H](CC)C(=O)N2C
[A] 11

====

Reported IC50, Serine/threonine-protein kinase PLK1 (Homo sapiens, UniProt P53350).
observable: IC50 (nM)

1 = CCOc1cc(C2CCN(C)CC2)ccc1Nc1ncc2c(n1)N(Cc1cc(C)cs1)[C@H](CC)C(=O)N2C
2 = CCOc1cc(C2CCN(C)CC2)ccc1Nc1ncc2c(n1)N(Cc1sccc1C)[C@H](CC)C(=O)N2C
3 = CC[C@@H]1C(=O)N(C)c2cnc(Nc3ccc(C4CCN(C)CC4)cc3OC)nc2N1C1CCCC1
4 = CCOc1cc(C2CCN(C)CC2)ccc1Nc1ncc2c(n1)N(Cc1cccc(Cl)c1)[C@H](CC)C(=O)N2C
5 = CCOc1cc(C2CCN(C)CC2)ccc1Nc1ncc2c(n1)N(Cc1ccccc1)[C@H](CC)C(=O)N2C
[Q] Take the compounds listed above and rank them by IC50; the top slot goes to the highest value. List the labels, following the order given in the request.
[A] 4, 5, 1, 2, 3

====

measured-on: Insulin receptor (Homo sapiens)
Sequence (P06213 28-758 limits assumed): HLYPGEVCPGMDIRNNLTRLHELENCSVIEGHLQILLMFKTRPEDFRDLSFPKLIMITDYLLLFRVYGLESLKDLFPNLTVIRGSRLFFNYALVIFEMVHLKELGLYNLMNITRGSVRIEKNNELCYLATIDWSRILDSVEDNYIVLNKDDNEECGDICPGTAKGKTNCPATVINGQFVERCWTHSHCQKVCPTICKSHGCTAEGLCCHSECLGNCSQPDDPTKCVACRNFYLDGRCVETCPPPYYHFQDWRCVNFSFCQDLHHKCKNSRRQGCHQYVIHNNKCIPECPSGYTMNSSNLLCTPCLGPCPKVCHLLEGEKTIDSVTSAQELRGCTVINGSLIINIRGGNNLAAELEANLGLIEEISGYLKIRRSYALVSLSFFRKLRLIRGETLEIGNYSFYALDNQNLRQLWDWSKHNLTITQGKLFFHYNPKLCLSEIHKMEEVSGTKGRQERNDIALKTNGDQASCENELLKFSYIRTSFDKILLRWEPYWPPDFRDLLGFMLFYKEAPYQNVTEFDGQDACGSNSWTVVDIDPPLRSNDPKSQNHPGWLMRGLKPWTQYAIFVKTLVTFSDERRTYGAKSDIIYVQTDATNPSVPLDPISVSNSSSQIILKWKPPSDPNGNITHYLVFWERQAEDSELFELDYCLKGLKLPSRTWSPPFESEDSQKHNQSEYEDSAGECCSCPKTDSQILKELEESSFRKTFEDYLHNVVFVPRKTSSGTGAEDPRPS
Sequence (P06213 763-1382 limits assumed): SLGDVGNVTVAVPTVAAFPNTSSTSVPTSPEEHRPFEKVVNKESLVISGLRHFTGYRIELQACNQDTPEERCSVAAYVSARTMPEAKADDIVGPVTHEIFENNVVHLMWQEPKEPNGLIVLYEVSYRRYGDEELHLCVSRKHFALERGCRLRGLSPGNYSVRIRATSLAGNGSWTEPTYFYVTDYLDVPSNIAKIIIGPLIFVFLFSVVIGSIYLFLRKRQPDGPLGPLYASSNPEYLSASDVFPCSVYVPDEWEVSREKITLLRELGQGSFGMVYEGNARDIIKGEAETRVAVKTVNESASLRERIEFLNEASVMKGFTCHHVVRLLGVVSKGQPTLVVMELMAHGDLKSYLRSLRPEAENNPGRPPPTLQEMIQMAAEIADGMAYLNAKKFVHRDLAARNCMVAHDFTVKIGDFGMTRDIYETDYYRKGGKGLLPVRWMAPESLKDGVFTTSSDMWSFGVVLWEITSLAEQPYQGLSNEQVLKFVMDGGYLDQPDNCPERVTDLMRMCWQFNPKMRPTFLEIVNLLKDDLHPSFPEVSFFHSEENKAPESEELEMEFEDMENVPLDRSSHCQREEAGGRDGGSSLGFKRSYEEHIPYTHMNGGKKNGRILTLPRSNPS
observable: pKd
Formally, pKd is defined as -log10 of the concentration c, with c in mol/L.

[Q] Quick one: pKd for CCOc1cc(C2CCN(C)CC2)ccc1Nc1ncc2c(n1)N(Cc1cc(C)cs1)[C@H](CC)C(=O)N2C ?
[A] 6.72

====

measured-on: Serine/threonine-protein kinase PLK3 (Homo sapiens, UniProt Q9H4B4)
Sequence (Q9H4B4 whole entry): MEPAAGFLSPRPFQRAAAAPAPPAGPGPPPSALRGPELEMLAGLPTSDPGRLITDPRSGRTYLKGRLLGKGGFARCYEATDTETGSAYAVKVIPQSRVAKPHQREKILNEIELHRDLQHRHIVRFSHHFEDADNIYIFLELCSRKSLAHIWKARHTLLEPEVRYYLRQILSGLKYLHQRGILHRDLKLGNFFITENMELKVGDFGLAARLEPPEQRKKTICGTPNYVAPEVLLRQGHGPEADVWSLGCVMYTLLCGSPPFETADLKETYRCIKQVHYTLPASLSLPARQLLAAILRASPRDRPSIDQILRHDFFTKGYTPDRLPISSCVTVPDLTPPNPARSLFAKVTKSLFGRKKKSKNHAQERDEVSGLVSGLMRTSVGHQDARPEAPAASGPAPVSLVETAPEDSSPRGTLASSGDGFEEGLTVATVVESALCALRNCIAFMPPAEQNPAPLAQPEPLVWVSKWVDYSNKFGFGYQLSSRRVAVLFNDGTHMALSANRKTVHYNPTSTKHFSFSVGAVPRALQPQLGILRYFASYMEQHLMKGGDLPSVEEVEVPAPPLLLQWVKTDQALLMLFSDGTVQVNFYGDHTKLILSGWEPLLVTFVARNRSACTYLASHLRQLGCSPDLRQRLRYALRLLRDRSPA
observable: pKd
// pKd: -log10(molar conc.)

[Q] Give the measured pKd of CCOc1cc(C2CCN(C)CC2)ccc1Nc1ncc2c(n1)N(Cc1cc(C)cs1)[C@H](CC)C(=O)N2C .
[A] 6.80

====

measured-on: ALK tyrosine kinase receptor (Homo sapiens, UniProt Q9UM73, F1174L)
method-description: Displacement of kinase tracer 236 from human N-terminal GST-tagged ALK F1174L mutant (1058 to 1620 residues) after 60 mins by LanthaScreen Eu--kinase binding assay
observable: IC50 (nM)

// worked examples, IC50 included
CCOc1cc(C2CCN(C)CC2)ccc1Nc1ncc2c(n1)N(Cc1scnc1C)[C@H](CC)C(=O)N2C :: 370
CCOc1cc(C2CCN(C)CC2)ccc1Nc1ncc2c(n1)N(Cc1ccccc1Br)[C@H](CC)C(=O)N2C :: 150
CCOc1cc(C(=O)NC2CCN(C)CC2)ccc1Nc1ncc2c(n1)N(Cc1ccccc1)[C@H](CC)C(=O)N2C :: 440
CCOc1cc(C2CCN(C)CC2)ccc1Nc1ncc2c(n1)N(Cc1cccc(C#N)c1)[C@H](CC)C(=O)N2C :: 370
CCOc1cc(C2CCN(C)CC2)ccc1Nc1ncc2c(n1)N(Cc1ccc(Br)cc1)[C@H](CC)C(=O)N2C :: 680

A = CC[C@@H]1C(=O)N(C)c2cnc(Nc3ccc(C4CCN(C)CC4)cc3OC)nc2N1C1CCCC1
B = CCOc1cc(C2CCN(C)CC2)ccc1Nc1ncc2c(n1)N(Cc1cc(C)cs1)[C@H](CC)C(=O)N2C
[Q] Which entry shows the lesser value of IC50 here, A or B ? // output: label of the selected item
[A] B
(B: 17 nM, A: 290 nM)

P = CCOc1cc(C(=O)NC2CCN(C)CC2)ccc1Nc1ncc2c(n1)N(C1CCCC1)[C@H](CC)C(=O)N2C
Q = CCOc1cc(C2CCN(C)CC2)ccc1Nc1ncc2c(n1)N(Cc1cccc(Cl)c1)[C@H](CC)C(=O)N2C
R = CCOc1cc(C2CCN(C)CC2)ccc1Nc1ncc2c(n1)N(Cc1sccc1C)[C@H](CC)C(=O)N2C
[Q] Rank descending by IC50. Return value: ordered labels per request.
[A] P, Q, R

A = CCOc1cc(C2CCN(C)CC2)ccc1Nc1ncc2c(n1)N(Cc1cccc(OC)c1)[C@H](CC)C(=O)N2C
B = CCOc1cc(C2CCN(C)CC2)ccc1Nc1ncc2c(n1)N(Cc1ccc(C)s1)[C@H](CC)C(=O)N2C
C = CCOc1cc(C2CCN(C)CC2)ccc1Nc1ncc2c(n1)N(Cc1ccccc1)[C@H](CC)C(=O)N2C
D = CCOc1cc(C(=O)NC2CCN(C)CC2)ccc1Nc1ncc2c(n1)N(C1CCCC1)CC(=O)N2C
[Q] Rank items: key IC50, increasing. Arrange the labels as the request states and list them.
[A] C, B, A, D

Data provenance is ChEMBL document CHEMBL4400550.
